Source listed as patent US20240325544A1.

Protocol Details: Plasma concentration of respective natriuretic peptide by ELISA after SC bolus in CD-1 mice (pharmacokinetics, Table 3)
Setup Conditions: male, CD-1, mouse, in vivo; mice, SC bolus 1.0 mg/kg (≤0.45 μmol/kg), 2 hr; ELISA; n = 3-5; read-out: Plasma concentration of respective Natriuretic Peptide; ANP, BNP, or CNP, 2 hr
Measured Property: level at 2 h (ng/mL)
Write down the numeric answer in ng/mL and omit the unit.

Could you tell me which level at 2 h is on file for CC[C@H](C)[C@@H]1NC(=O)[C@H](CCCNC(=N)N)NC(=O)[C@H](CC(=O)O)NC(=O)[C@H](CC(C)C)NC(=O)[C@H](CCCCN)NC(=O)[C@H](CC(C)C)NC(=O)CNC(=O)[C@H](Cc2ccccc2)NC(=O)[C@@H](NC(=O)CNC(=O)[C@H](CCCCN)NC(=O)[C@H](CO)NC(=O)[C@H](CC(C)C)NC(=O)CN)CSSC[C@@H](C(=O)O)NC(=O)CNC(=O)[C@H](CC(C)C)NC(=O)CNC(=O)[C@H](CO)NC(=O)[C@H](CCSC)NC(=O)[C@H](CO)NC(=O)CNC1=O [SEQ ID NO: 32, reference compound] ?
2.17

###

Protocol Details: Clinically observable adverse effects of cationic alkyl moieties after subcutaneous bolus in rats (Table 1)
Type: in vivo, rat
Setup Conditions: male, Sprague-Dawley, rat, in vivo, sc, tested at 3.0, 5.0 or 10 μmol/kg, lethargy is considered maximum tolerated bolus dose, read-out: Lethargy* in n = 3
Square brackets hold non-standard residues; d marks the D form. Peptide text beside a SMILES is read from it. * marks the point of attachment. C18 diacid = O=C(O)CCCCCCCCCCCCCCCCC(=O)*; Stearoyl = CCCCCCCCCCCCCCCCCC(=O)*; Palmitoyl = CCCCCCCCCCCCCCCC(=O)*; Dab = NCC[C@H](N)C(=O)O; Dap = NC[C@H](N)C(=O)O; AEEA = NCCOCCOCC(=O)O; GABA = NCCCC(=O)O
Measured Property: MTD

I am curious: what MTD value has been reported for CCCCCCCCCCCCCCCC(=O)NCCOCCOCC(=O)NCCOCCOCC(=O)NCCOCCOCC(=O)N[C@@H](CCN)C(=O)N[C@@H](CN)C(=O)O [SEQ ID NO: 17, CH3(CH2)14(C═O)-Aeea-Aeea-Aeea-Dab-Dap] ({Palmitoyl-AEEA-AEEA-AEEA}-[Dab]-[Dap]-OH; C-terminus assumed) ?
> 10 µmol/kg

Given CCCCCCCCCCCCCCCC(=O)NCCOCCOCC(=O)NCCOCCOCC(=O)N[C@@H](CN)C(=O)N[C@@H](CCN)C(=O)O [SEQ ID NO: 13, CH3(CH2)14(C═O)-Aeea-Aeea-Dap-Dab] ({Palmitoyl-AEEA-AEEA}-[Dap]-[Dab]-OH; C-terminus assumed) , state its recorded MTD.
> 10 µmol/kg

Which MTD value belongs to NCC[C@H](NC(=O)[C@H](CCN)NC(=O)COCCOCCNC(=O)COCCOCCNC(=O)COCCOCCNC(=O)CCCCCCCCCCCCCCCCC(=O)O)C(=O)O [SEQ ID NO: 18] ({C18 diacid-AEEA-AEEA-AEEA}-[Dab]-[Dab]-OH; C-terminus assumed) ?
> 10 µmol/kg

GET /values?readout=MTD&item= CCCCCCCCCCCCCCCC(=O)NCCOCCOCC(=O)NCCOCCOCC(=O)N[C@@H](CCCCN)C(=O)N[C@@H](CCCCN)C(=O)N[C@@H](CCCCN)C(=O)N[C@@H](CCCCN)C(=O)O [SEQ ID NO: 4, CH3(CH2)14(C═O)-Aeea-Aeea-KKKK] ({Palmitoyl-AEEA-AEEA}-KKKK-OH; C-terminus assumed)
≥ 3 µmol/kg

What value of MTD has been recorded for this entry: CCCCCCCCCCCCCCCCCC(=O)N[C@@H](CCCCN)C(=O)N[C@@H](CCCCN)C(=O)N[C@@H](CCCCN)C(=O)N[C@@H](CCCCN)C(=O)NCC(=O)NCC(=O)NCC(=O)O [SEQ ID NO: 2, CH3(CH2)16(C═O)-KKKKGGG] (Stearoyl-KKKKGGG-OH; C-terminus assumed)
≥ 3 µmol/kg

Can you share its MTD? I mean this compound: CCCCCCCCCCCCCCCC(=O)NCCCC(=O)NCCCC(=O)NCCCC(=O)N[C@@H](CCN)C(=O)N[C@@H](CCN)C(=O)O [SEQ ID NO: 12, CH3(CH2)14(C═O)-γAbu-γAbu-γAbu-Dab-Dab] ({Palmitoyl-GABA-GABA-GABA}-[Dab]-[Dab]-OH; C-terminus assumed)
> 10 µmol/kg

Please give the measured MTD for this compound: CCCCCCCCCCCCCCCC(=O)NCCOCCOCC(=O)NCCOCCOCC(=O)NCCOCCOCC(=O)N[C@@H](CCN)C(=O)N[C@@H](CCN)C(=O)O [SEQ ID NO: 10, CH3(CH2)14(C═O)-Aeea-Aeea-Aeea-Dab-Dab] ({Palmitoyl-AEEA-AEEA-AEEA}-[Dab]-[Dab]-OH; C-terminus assumed)
> 10 µmol/kg

I am curious: what MTD value has been reported for CCCCCCCCCCCCCCCC(=O)NCCOCCOCC(=O)NCCOCCOCC(=O)NCCOCCOCC(=O)N[C@H](CCCCN)C(=O)N[C@@H](CCCCN)C(=O)O [SEQ ID NO: 1, CH3(CH2)14(C═O)-Aeea-Aeea-Aeea-kK] ?
≥ 3 µmol/kg

// returns reported MTD for input NC[C@H](NC(=O)[C@H](CN)NC(=O)COCCOCCNC(=O)COCCOCCNC(=O)COCCOCCNC(=O)CCCCCCCCCCCCCCCCC(=O)O)C(=O)O [SEQ ID NO: 20] ({C18 diacid-AEEA-AEEA-AEEA}-[Dap]-[Dap]-OH; C-terminus assumed)
> 10 µmol/kg

For the compound shown here, CCCCCCCCCCCCCCCC(=O)N[C@@H](CCC(=O)O)C(=O)NCCOCCOCC(=O)NCCOCCOCC(=O)N[C@@H](CCN)C(=O)N[C@@H](CCN)C(=O)O [SEQ ID NO: 16, CH3(CH2)14(C═O)-E-Aeea-Aeea-Dab-Dab] (Palmitoyl-E[AEEA][AEEA][Dab][Dab]-OH; C-terminus assumed) , give the reported MTD.
> 10 µmol/kg

Value lookup for MTD; key = CCCCCCCCCCCCCCCC(=O)NCCOCCOCC(=O)NCCOCCOCC(=O)NCCOCCOCC(=O)N[C@H](CCCCN)C(=O)N[C@H](CCCCN)C(=O)O [SEQ ID NO: 3, CH3(CH2)14(C═O)-Aeea-Aeea-Aeea-kk]
≥ 5 µmol/kg

Record request: MTD value, item CCCCCCCCCCCCCCCC(=O)NCCOCCOCC(=O)NCCOCCOCC(=O)NCCOCCOCC(=O)N[C@@H](CN)C(=O)N[C@@H](CN)C(=O)O [SEQ ID NO: 14, CH3(CH2)14(C═O)-Aeea-Aeea-Aeea-Dap-Dap] ({Palmitoyl-AEEA-AEEA-AEEA}-[Dap]-[Dap]-OH; C-terminus assumed)
> 10 µmol/kg

Any idea what MTD was measured for CCCCCCCCCCCCCCCC(=O)NCCOCCOCC(=O)NCCOCCOCC(=O)NCCOCCOCC(=O)N[C@@H](CCN)C(=O)N[C@@H](CCN)C(=O)N[C@@H](CCN)C(=O)O [SEQ ID NO: 9] ({Palmitoyl-AEEA-AEEA-AEEA}-[Dab]-[Dab]-[Dab]-OH; C-terminus assumed) ?
> 5 µmol/kg

###

System: Sprague Dawley rats
Protocol Details: Clinically observable adverse effects of cationic alkyl moieties after subcutaneous bolus in rats (Table 1)
Type: in vivo, rat
Setup Conditions: tested at 3.0, 5.0 or 10 μmol/kg, dose at which sign was seen
Numbered stars: 1 amine (or outer) side, 2 acyl side, 3 side chain; on linkers, the order of the positions; unused ones are H or OH. Square brackets hold non-standard residues; d marks the D form. Peptide text beside a SMILES is read from it. * marks the point of attachment. C18 diacid = O=C(O)CCCCCCCCCCCCCCCCC(=O)*; γGlu = O=C(O)[C@H](CCC(=O)[*:2])N[*:1]; Stearoyl = CCCCCCCCCCCCCCCCCC(=O)*; Palmitoyl = CCCCCCCCCCCCCCCC(=O)*; Dab = NCC[C@H](N)C(=O)O; Dap = NC[C@H](N)C(=O)O; AEEA = NCCOCCOCC(=O)O
Measured Property: Swelling and/or Discoloration in n = 3

So what does the record say about Swelling and/or Discoloration in n = 3 for NCC[C@H](NC(=O)[C@H](CCN)NC(=O)COCCOCCNC(=O)COCCOCCNC(=O)COCCOCCNC(=O)CCCCCCCCCCCCCCCCC(=O)O)C(=O)O [SEQ ID NO: 18] ({C18 diacid-AEEA-AEEA-AEEA}-[Dab]-[Dab]-OH; C-terminus assumed) ?
>10 µmol/kg

Give the measured Swelling and/or Discoloration in n = 3 of CCCCCCCCCCCCCCCC(=O)NCCOCCOCC(=O)NCCOCCOCC(=O)NCCOCCOCC(=O)N[C@H](CCCCN)C(=O)N[C@@H](CCCCN)C(=O)O [SEQ ID NO: 1, CH3(CH2)14(C═O)-Aeea-Aeea-Aeea-kK] .
≥3 µmol/kg

Sample CCCCCCCCCCCCCCCC(=O)NCCOCCOCC(=O)NCCOCCOCC(=O)NCCOCCOCC(=O)N[C@@H](CN)C(=O)N[C@@H](CN)C(=O)N[C@@H](CN)C(=O)N[C@@H](CN)C(=O)O [SEQ ID NO: 22] ({Palmitoyl-AEEA-AEEA-AEEA}-[Dap][Dap][Dap][Dap]-OH; C-terminus assumed) — what was its Swelling and/or Discoloration in n = 3?
>10 µmol/kg

Give its Swelling and/or Discoloration in n = 3 value. Item: CCCCCCCCCCCCCCCCCC(=O)N[C@@H](CCCCN)C(=O)N[C@@H](CCCCN)C(=O)N[C@@H](CCCCN)C(=O)N[C@@H](CCCCN)C(=O)NCC(=O)NCC(=O)NCC(=O)O [SEQ ID NO: 2, CH3(CH2)16(C═O)-KKKKGGG] (Stearoyl-KKKKGGG-OH; C-terminus assumed)
≥3 µmol/kg

Can you look up the measured Swelling and/or Discoloration in n = 3 of CCCCCCCCCCCCCCCC(=O)N[C@@H](CCC(=O)O)C(=O)NCCOCCOCC(=O)NCCOCCOCC(=O)N[C@@H](CCN)C(=O)N[C@@H](CCN)C(=O)O [SEQ ID NO: 16, CH3(CH2)14(C═O)-E-Aeea-Aeea-Dab-Dab] (Palmitoyl-E[AEEA][AEEA][Dab][Dab]-OH; C-terminus assumed) for me?
>10 µmol/kg

Record request: Swelling and/or Discoloration in n = 3 value, item NC[C@H](NC(=O)[C@H](CN)NC(=O)COCCOCCNC(=O)COCCOCCNC(=O)COCCOCCNC(=O)CCCCCCCCCCCCCCCCC(=O)O)C(=O)O [SEQ ID NO: 20] ({C18 diacid-AEEA-AEEA-AEEA}-[Dap]-[Dap]-OH; C-terminus assumed)
>10 µmol/kg

Query: Swelling and/or Discoloration in n = 3; subject: CCCCCCCCCCCCCCCC(=O)NCCOCCOCC(=O)NCCOCCOCC(=O)NCCOCCOCC(=O)N[C@@H](CCCCN)C(=O)N[C@@H](CCCCN)C(=O)O [SEQ ID NO: 7, CH3(CH2)14(C═O)-Aeea-Aeea-Aeea-KK]
≥3 µmol/kg

// returns reported Swelling and/or Discoloration in n = 3 for input CCCCCCCCCCCCCCCC(=O)NCCOCCOCC(=O)NCCOCCOCC(=O)NCCOCCOCC(=O)N[C@@H](CN)C(=O)N[C@@H](CN)C(=O)N[C@@H](CN)C(=O)O [SEQ ID NO: 19] ({Palmitoyl-AEEA-AEEA-AEEA}-[Dap]-[Dap]-[Dap]-OH; C-terminus assumed)
>10 µmol/kg

Swelling and/or Discoloration in n = 3 lookup needed for CCCCCCCCCCCCCCCC(=O)NCCOCCOCC(=O)NCCOCCOCC(=O)NCCOCCOCC(=O)N[C@@H](CN)C(=O)N[C@@H](CN)C(=O)O [SEQ ID NO: 14, CH3(CH2)14(C═O)-Aeea-Aeea-Aeea-Dap-Dap] ({Palmitoyl-AEEA-AEEA-AEEA}-[Dap]-[Dap]-OH; C-terminus assumed) , thanks.
>10 µmol/kg

Returns the measured Swelling and/or Discoloration in n = 3 for the input compound. Input: CCCCCCCCCCCCCCCC(=O)NCCOCCOCC(=O)NCCOCCOCC(=O)N[C@@H](CCCCN)C(=O)N[C@@H](CCCCN)C(=O)N[C@@H](CCCCN)C(=O)N[C@@H](CCCCN)C(=O)O [SEQ ID NO: 4, CH3(CH2)14(C═O)-Aeea-Aeea-KKKK] ({Palmitoyl-AEEA-AEEA}-KKKK-OH; C-terminus assumed)
≥3 µmol/kg

Which Swelling and/or Discoloration in n = 3 value is on record for NCC[C@H](NC(=O)[C@H](CCN)NC(=O)COCCOCCNC(=O)COCCOCCNC(=O)CCCCCCCCCCCCCCCCC(=O)O)C(=O)O [SEQ ID NO: 21, (HOOC)(CH2)16(C═O)-Aeea-Aeea-Dab-Dab] ({C18 diacid-AEEA-AEEA}-[Dab]-[Dab]-OH; C-terminus assumed) ?
>10 µmol/kg

Which Swelling and/or Discoloration in n = 3 is reported for this compound? CCCCCCCCCCCCCCCC(=O)NCCOCCOCC(=O)NCCOCCOCC(=O)N[C@@H](CN)C(=O)N[C@@H](CCN)C(=O)O [SEQ ID NO: 13, CH3(CH2)14(C═O)-Aeea-Aeea-Dap-Dab] ({Palmitoyl-AEEA-AEEA}-[Dap]-[Dab]-OH; C-terminus assumed)
>10 µmol/kg

Requested field: Swelling and/or Discoloration in n = 3. Item: CCCCCCCCCCCCCCCC(=O)N[C@@H](CCC(=O)NCCOCCOCC(=O)NCCOCCOCC(=O)N[C@@H](CCN)C(=O)N[C@@H](CCN)C(=O)O)C(=O)O [SEQ ID NO: 15, CH3(CH2)14(C═O)-γE-Aeea-Aeea-Dab-Dab] ({Palmitoyl-γGlu-AEEA-AEEA}-[Dab]-[Dab]-OH; C-terminus assumed)
>10 µmol/kg

Endpoint output: Swelling and/or Discoloration in n = 3 of CCCCCCCCCCCCCCCC(=O)NCCOCCOCC(=O)NCCOCCOCC(=O)NCCOCCOCC(=O)N[C@@H](CCN)C(=O)N[C@@H](CCN)C(=O)O [SEQ ID NO: 10, CH3(CH2)14(C═O)-Aeea-Aeea-Aeea-Dab-Dab] ({Palmitoyl-AEEA-AEEA-AEEA}-[Dab]-[Dab]-OH; C-terminus assumed) . Value?
≥10 µmol/kg
